target: Sodium- and chloride-dependent betaine transporter (Homo sapiens, UniProt P48065, S345A); experiment: Inhibition of human BGT1 S345A mutant expressed in tsA201 cells assessed as reduction in [3H]GABA uptake after 3 mins by scintillation counting method
Sequence (P48065 whole entry S345A): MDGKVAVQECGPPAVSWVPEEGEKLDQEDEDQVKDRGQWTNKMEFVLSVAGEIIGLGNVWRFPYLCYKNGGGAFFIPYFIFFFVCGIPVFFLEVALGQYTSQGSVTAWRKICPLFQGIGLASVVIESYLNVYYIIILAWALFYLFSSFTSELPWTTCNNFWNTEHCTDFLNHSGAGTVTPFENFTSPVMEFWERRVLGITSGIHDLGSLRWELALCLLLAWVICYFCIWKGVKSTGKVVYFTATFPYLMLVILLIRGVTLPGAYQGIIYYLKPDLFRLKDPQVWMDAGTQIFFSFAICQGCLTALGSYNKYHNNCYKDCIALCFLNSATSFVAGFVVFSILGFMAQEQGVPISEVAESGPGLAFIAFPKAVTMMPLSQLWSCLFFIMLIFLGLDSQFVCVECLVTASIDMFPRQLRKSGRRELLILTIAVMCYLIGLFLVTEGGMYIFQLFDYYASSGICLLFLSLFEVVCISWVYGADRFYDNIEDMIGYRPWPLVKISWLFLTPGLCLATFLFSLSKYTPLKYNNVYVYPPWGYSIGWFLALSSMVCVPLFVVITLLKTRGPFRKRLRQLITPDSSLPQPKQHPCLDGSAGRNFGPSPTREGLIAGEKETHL

SMILES STRUCTURE	IC50, µM
O=C(NC1CCN(Cc2ccccc2)CC1)c1ccc(Cl)cc1Cl	21

----------
target: Sodium- and chloride-dependent betaine transporter (Homo sapiens, UniProt P48065, Y453S/Y454A); assay: Inhibition of human BGT1 Y453S/Y454A double mutant expressed in tsA201 cells assessed as reduction in [3H]GABA uptake after 3 mins by scintillation counting method; format: cell-based; settings: read-out: IC50
Sequence (P48065 whole entry Y453S/Y454A): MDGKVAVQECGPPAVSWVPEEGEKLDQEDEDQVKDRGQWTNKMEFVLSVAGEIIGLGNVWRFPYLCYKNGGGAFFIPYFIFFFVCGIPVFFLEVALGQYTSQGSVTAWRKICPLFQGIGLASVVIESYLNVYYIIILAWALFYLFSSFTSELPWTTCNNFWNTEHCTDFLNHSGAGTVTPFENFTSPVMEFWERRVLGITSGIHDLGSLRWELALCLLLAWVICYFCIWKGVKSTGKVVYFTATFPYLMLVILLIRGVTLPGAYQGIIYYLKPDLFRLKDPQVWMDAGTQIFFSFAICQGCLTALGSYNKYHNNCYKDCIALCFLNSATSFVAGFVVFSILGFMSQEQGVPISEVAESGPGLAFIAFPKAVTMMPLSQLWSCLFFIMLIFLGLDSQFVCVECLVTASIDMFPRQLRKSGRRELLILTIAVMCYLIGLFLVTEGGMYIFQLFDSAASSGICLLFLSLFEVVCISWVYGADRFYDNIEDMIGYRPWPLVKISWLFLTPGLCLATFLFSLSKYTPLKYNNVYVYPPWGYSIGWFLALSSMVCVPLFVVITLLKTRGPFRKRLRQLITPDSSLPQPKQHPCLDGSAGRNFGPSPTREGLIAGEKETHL
pIC50: −log10 of the molar value.
Below, each entry is listed alongside its reported pIC50.

SMILES STRUCTURE	pIC50
O=C(NC1CCN(Cc2ccccc2)CC1)c1ccc(Cl)cc1Cl	5.22
O=C(NC1CCN(Cc2ccccc2)CC1)c1ccc(Cl)nc1Cl	4.82

FYI, the data here is from ChEMBL document CHEMBL4028872.
